Could you please report measured pEC50 for the items listed next?
- System: HCV replicon cells
- assay-method-text: HCV replicon FRET / luciferase assay (96-well plates)
- Type: cell-based
- settings: Hepatitis C virus, Table 1a; HCV replicon; read-out: EC50
pEC50: −log10 of the molar value.

Sample CNC(=O)c1c(-c2ccc(F)cc2)oc2ccc(-c3cccc(C(=O)Nc4ccccc4Cl)c3)cc12 ; pEC50 observed: 5.00 to 6.00

Sample CNC(=O)c1c(-c2ccc(F)cc2)oc2ccc(-c3cccc(C(=O)NCC4CCCO4)c3)cc12 (centres unmarked) ; pEC50 observed: 6.00 to 6.60

Sample CNC(=O)c1c(-c2ccc(F)cc2)oc2ccc(-c3ccc(C(=O)N4CC[C@H](NC(C)=O)C4)cc3)cc12 ; pEC50 observed: 5.00 to 6.00

Sample CNC(=O)c1c(-c2ccc(F)cc2)oc2ccc(-c3cccc(C(=O)N4CCN(CCOC)CC4)c3)cc12 ; pEC50 observed: < 5.00

Sample CNC(=O)c1c(-c2ccc(F)cc2)oc2ccc(-c3ccc(C(=O)NCCNC(C)=O)cc3)cc12 ; pEC50 observed: < 5.00

Sample CCN(CC)C(=O)c1ccc(-c2ccc3oc(-c4ccc(F)cc4)c(C(=O)NC)c3c2)cc1 ; pEC50 observed: < 5.00

Sample CCN(Cc1ccncc1)C(=O)c1ccc(-c2ccc3oc(-c4ccc(F)cc4)c(C(=O)NC)c3c2)cc1 ; pEC50 observed: 5.00 to 6.00

Sample CNC(=O)c1c(-c2ccc(F)cc2)oc2ccc(-c3cccc(C(=O)NCc4cccc(F)c4)c3)cc12 ; pEC50 observed: > 6.60

Sample CNC(=O)c1c(-c2ccc(F)cc2)oc2ccc(-c3cccc(NC(C)=O)c3)cc12 ; pEC50 observed: 5.00 to 6.00

Sample CNC(=O)c1c(-c2ccc(F)cc2)oc2ccc(-c3ccc(CO)cc3)cc12 ; pEC50 observed: 6.00 to 6.60

Sample CNC(=O)c1c(-c2ccc(F)cc2)oc2ccc(-c3cccc(C(=O)OC(C)(C)C)c3)cc12 ; pEC50 observed: 5.00 to 6.00

Sample CNC(=O)c1c(-c2ccc(F)cc2)oc2ccc(-c3cccc(C(=O)NC(C)(C)CC(C)(C)C)c3)cc12 ; pEC50 observed: > 6.60

Sample CNC(=O)c1c(-c2ccc(F)cc2)oc2ccc(-c3cccc(C(=O)N(C)CCOC)c3)cc12 ; pEC50 observed: 5.00 to 6.00

Sample CNC(=O)c1c(-c2ccc(F)cc2)oc2ccc(-c3cccc(C(=O)NC4(CO)CCCC4)c3)cc12 ; pEC50 observed: > 6.60

Sample CNC(=O)c1c(-c2ccc(F)cc2)oc2ccc(-c3cccc(C(=O)Nc4cc(C)no4)c3)cc12 ; pEC50 observed: 5.00 to 6.00

Sample CNC(=O)c1c(-c2ccc(F)cc2)oc2ccc(-c3cccc(C(=O)N[C@@H](CO)C(N)=O)c3)cc12 ; pEC50 observed: < 5.00

Sample CCN1CCN(C(=O)c2cccc(-c3ccc4oc(-c5ccc(F)cc5)c(C(=O)NC)c4c3)c2)CC1 ; pEC50 observed: 5.00 to 6.00

Sample CNC(=O)c1c(-c2ccc(F)cc2)oc2ccc(-c3cccc(C(=O)N[C@H](CO)Cc4c[nH]cn4)c3)cc12 ; pEC50 observed: 5.00 to 6.00

Sample CNC(=O)c1c(-c2ccc(F)cc2)oc2ccc(-c3cccc(C(=O)N[C@@H](C)c4ccc(F)cc4)c3)cc12 ; pEC50 observed: > 6.60

Sample CNC(=O)c1c(-c2ccc(F)cc2)oc2ccc(-c3cccc(CO)c3)cc12 ; pEC50 observed: < 5.00

Sample CNC(=O)c1c(-c2ccc(F)cc2)oc2ccc(-c3ccc(C(=O)NCC(N)=O)cc3)cc12 ; pEC50 observed: < 5.00

Sample CNC(=O)c1c(-c2ccc(F)cc2)oc2ccc(-c3cccc(C(=O)NC4CCCCC4)c3)cc12 ; pEC50 observed: > 6.60

Sample CNC(=O)c1c(-c2ccc(F)cc2)oc2ccc(-c3cccc(C(=O)Nc4ccccc4OC)c3)cc12 ; pEC50 observed: > 6.60

Sample CNC(=O)c1c(-c2ccc(F)cc2)oc2ccc(-c3cccc(C(=O)NC(C)(C)c4ccccc4)c3)c(NC(C)=O)c12 ; pEC50 observed: 5.00 to 6.00

Sample CNC(=O)c1c(-c2ccc(F)cc2)oc2ccc(-c3cccc(C(=O)N4CCCC4)c3)cc12 ; pEC50 observed: 6.00 to 6.60

Sample CNC(=O)c1c(-c2ccc(F)cc2)oc2ccc(-c3ccc(C(=O)NCCc4ccc(OC)cc4)cc3)cc12 ; pEC50 observed: < 5.00
